Kindly state inhibition for each of the entries shown.
# Subject Of Test: ABL1 (human) (UniProt P00519)
# Sequence (P00519 whole entry, looked up): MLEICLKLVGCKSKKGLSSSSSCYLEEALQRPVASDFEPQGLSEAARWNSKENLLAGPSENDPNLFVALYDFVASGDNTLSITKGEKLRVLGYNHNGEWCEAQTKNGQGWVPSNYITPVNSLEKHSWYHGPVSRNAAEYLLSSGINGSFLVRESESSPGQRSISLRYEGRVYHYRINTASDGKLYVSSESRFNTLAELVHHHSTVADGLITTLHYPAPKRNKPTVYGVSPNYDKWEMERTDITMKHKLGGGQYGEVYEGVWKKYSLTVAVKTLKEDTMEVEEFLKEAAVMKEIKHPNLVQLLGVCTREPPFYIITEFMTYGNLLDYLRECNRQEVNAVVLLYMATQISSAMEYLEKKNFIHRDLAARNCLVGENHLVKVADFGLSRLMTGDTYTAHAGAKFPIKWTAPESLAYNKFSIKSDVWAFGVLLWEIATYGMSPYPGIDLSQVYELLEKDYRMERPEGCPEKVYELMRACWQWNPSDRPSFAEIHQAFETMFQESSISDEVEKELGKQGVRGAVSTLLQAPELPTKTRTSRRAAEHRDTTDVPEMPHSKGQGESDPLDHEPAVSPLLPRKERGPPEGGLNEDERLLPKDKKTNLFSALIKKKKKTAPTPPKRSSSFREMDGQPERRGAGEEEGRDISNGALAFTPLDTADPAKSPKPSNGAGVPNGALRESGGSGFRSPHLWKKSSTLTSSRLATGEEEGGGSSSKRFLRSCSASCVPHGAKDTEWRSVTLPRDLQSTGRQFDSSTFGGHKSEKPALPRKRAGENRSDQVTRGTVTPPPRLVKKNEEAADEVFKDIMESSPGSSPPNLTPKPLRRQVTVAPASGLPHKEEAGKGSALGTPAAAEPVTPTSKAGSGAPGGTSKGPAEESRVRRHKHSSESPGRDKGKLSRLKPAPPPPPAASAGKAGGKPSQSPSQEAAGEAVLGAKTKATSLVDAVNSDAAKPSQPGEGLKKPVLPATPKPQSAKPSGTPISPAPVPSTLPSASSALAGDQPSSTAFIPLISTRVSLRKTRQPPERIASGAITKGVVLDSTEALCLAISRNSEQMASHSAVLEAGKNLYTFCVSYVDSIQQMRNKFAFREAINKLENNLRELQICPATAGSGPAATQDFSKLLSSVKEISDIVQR
# Protocol Conditions: compound 1.0 µM
One number for each entry, in %.

Here's what some known entries look like.
O=S(=O)(c1cccc2cnccc12)N1CCCNCC1 = 0
CS(=O)(=O)CCNCc1ccc(-c2ccc3ncnc(Nc4ccc(OCc5cccc(F)c5)c(Cl)c4)c3c2)o1 = 0

# batch size: 5; output inhibition per entry
1. C#Cc1cccc(Nc2ncnc3cc(OCCOC)c(OCCOC)cc23)c1
2. CS(=O)c1ccc(-c2nc(-c3ccc(F)cc3)c(-c3ccncc3)[nH]2)cc1 (configuration not stated)
3. Cc1ccc(-c2nn(C(C)(C)C)c3ncnc(N)c23)cc1
4. CC[C@@H](CO)Nc1nc(NCc2ccccc2)c2ncn(C(C)C)c2n1
5. O=C1NCCc2[nH]c(-c3ccnc(-c4ccccc4F)c3)cc21

**Result**
80.6
3.15
82.9
8.86
0
